Target Under Test: T1, ZFP SBS#939 (synthetic)
T1 chain: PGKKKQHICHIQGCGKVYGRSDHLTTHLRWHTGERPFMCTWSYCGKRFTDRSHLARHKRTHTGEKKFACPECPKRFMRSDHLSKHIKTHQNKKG
Procedure Details: EMSA
Conditions Used: tags: MBP fusion
Quantity Name: Kd (nM)

INSERT INTO measurements (binder, quantity_name, measurement) VALUES
  ('GGGGGCTGG (dsDNA) DNA 1: GGGGGCTGG DNA 2: CCAGCCCCC', 'Kd', 0.352);

The measurements presented in this section are drawn from patent US20030068675.
